# MEASUREMENT_NOTES: Brain pharmacokinetics and brain/plasma ratio in male CD-1 mice (1 mg/kg i.v.)
# Assay type: in vivo
# SETUP_CONDITIONS: male, CD-1, mouse, brain and plasma, iv, 1 mg/kg, 1 mg/kg bolus i.v., 8 h, individual animals 1-3; read-out: Brain/plasma concentration ratio
MEASURED_PROPERTY: Kp at 8 h
Write the number on its own, no unit after it.

Item: CCn1c(=O)c2c(nc(/C=C/c3ccc(OC(F)F)c(OC(F)F)c3)n2C)n(CC)c1=O [Formula I] | Kp at 8 h: 0.902

Now take the following compound into account.
Item: CCn1c(=O)c2c(nc(/C=C/c3ccc(OC)c(OC)c3)n2C)n(CC)c1=O [Istradefylline, reference compound] | Kp at 8 h: 2.76

---

The following compounds are shown together with reported AUC(0-inf) values.
# MEASUREMENT_NOTES: Plasma pharmacokinetics in male CD-1 mice (1 mg/kg i.v. or 3 mg/kg p.o.)
# SETUP_CONDITIONS: CD-1, mouse, in vivo, iv, 1 mg/kg
Lab book: enter the figure in ng·h/mL, no units written.

These recorded examples may help you get a feel for the data.
Item: CCn1c(=O)c2c(nc(/C=C/c3ccc(OC(F)F)c(OC(F)F)c3)n2C)n(CC)c1=O [Formula I] | AUC(0-inf): 3240

Item: CCn1c(=S)c2c(nc(/C=C/c3ccc(OC)c(OC)c3)n2C)n(CC)c1=O [Formula III] | AUC(0-inf): 1580

Now take the following compound into account.
Item: CCn1c(=O)c2c(nc(/C=C/c3ccc(OC)c(OC)c3)n2C)n(CC)c1=O [Istradefylline, reference compound] | AUC(0-inf): 1440

---

# MEASUREMENT_NOTES: Brain pharmacokinetics and brain/plasma ratio in male CD-1 mice (1 mg/kg i.v.)
# Assay type: in vivo
# SETUP_CONDITIONS: male, CD-1, mouse, brain, intravenous, 1 mg/kg, 1 mg/kg bolus i.v., 5 min; read-out: Brain concentration, Mean
MEASURED_PROPERTY: concentration at 5 min

Item: CCn1c(=O)c2c(nc(/C=C/c3ccc(OC)c(OC)c3)n2C)n(CC)c1=O [Istradefylline, reference compound] | concentration at 5 min: 553 ng/g

Item: `CCn1c(=S)c2c(nc(/C=C/c3ccc(OC)c(OC)c3)n2C)n(CC)c1=O` | concentration at 5 min: 414 ng/g

Item: `CCn1c(=O)c2c(nc(/C=C/c3ccc(OC(F)F)c(OC(F)F)c3)n2C)n(CC)c1=O` | concentration at 5 min: 784 ng/g

---

# MEASUREMENT_NOTES: Brain pharmacokinetics and brain/plasma ratio in male CD-1 mice (1 mg/kg i.v.)
# Format: in vivo
# SETUP_CONDITIONS: male, CD-1, mouse, brain and plasma, iv, 1 mg/kg, 1 mg/kg bolus i.v., 0.5 h, individual animals 1-3; read-out: Brain/plasma concentration ratio
MEASURED_PROPERTY: Kp at 0.5 h
Write the number on its own, no unit after it.

Item: `CCn1c(=O)c2c(nc(/C=C/c3ccc(OC(F)F)c(OC(F)F)c3)n2C)n(CC)c1=O` | Kp at 0.5 h: 0.731

---

# MEASUREMENT_NOTES: Brain pharmacokinetics and brain/plasma ratio in male CD-1 mice (1 mg/kg i.v.)
# Type: in vivo
# SETUP_CONDITIONS: male, CD-1, mouse, brain/plasma, iv, 1 mg/kg, 1 mg/kg bolus i.v., 6 h; read-out: Brain/plasma concentration ratio, Mean
MEASURED_PROPERTY: Kp at 6 h
Write the number on its own, no unit after it.

Item: CCn1c(=O)c2c(nc(/C=C/c3ccc(OC)c(OC)c3)n2C)n(CC)c1=O [Istradefylline, reference compound] | Kp at 6 h: 0.96

Now take the following compound into account.
Item: `CCn1c(=O)c2c(nc(/C=C/c3ccc(OC(F)F)c(OC(F)F)c3)n2C)n(CC)c1=O` | Kp at 6 h: 0.767

---

# MEASUREMENT_NOTES: Brain pharmacokinetics and brain/plasma ratio in male CD-1 mice (1 mg/kg i.v.)
# Type: in vivo
# SETUP_CONDITIONS: male, CD-1, mouse, brain, intravenous, 1 mg/kg, 1 mg/kg bolus i.v., 0.25 h; read-out: Brain concentration, Mean
The following compounds are shown together with reported concentration at 0.25 h values.
Lab book: enter the figure in ng/g, no units written.

These recorded examples may help you get a feel for the data.
Item: `CCn1c(=O)c2c(nc(/C=C/c3ccc(OC(F)F)c(OC(F)F)c3)n2C)n(CC)c1=O` | concentration at 0.25 h: 488

Item: CCn1c(=O)c2c(nc(/C=C/c3ccc(OC)c(OC)c3)n2C)n(CC)c1=O [Istradefylline, reference compound] | concentration at 0.25 h: 388

Now take the following compound into account.
Item: `CCn1c(=S)c2c(nc(/C=C/c3ccc(OC)c(OC)c3)n2C)n(CC)c1=O` | concentration at 0.25 h: 409

---

# MEASUREMENT_NOTES: Brain pharmacokinetics and brain/plasma ratio in male CD-1 mice (1 mg/kg i.v.)
# Format: in vivo
# SETUP_CONDITIONS: male, CD-1, mouse, brain/plasma, iv, 1 mg/kg, 1 mg/kg bolus i.v., 1 h, individual animals 1-3; read-out: Brain/plasma concentration ratio
The following compounds are shown together with reported Kp at 1 h values.

Item: CCn1c(=O)c2c(nc(/C=C/c3ccc(OC(F)F)c(OC(F)F)c3)n2C)n(CC)c1=O [Formula I] | Kp at 1 h: 0.714

Item: CCn1c(=O)c2c(nc(/C=C/c3ccc(OC)c(OC)c3)n2C)n(CC)c1=O [Istradefylline, reference compound] | Kp at 1 h: 0.534

---

The following molecules are shown together with reported Tmax values.
# MEASUREMENT_NOTES: Brain pharmacokinetics and brain/plasma ratio in male CD-1 mice (1 mg/kg i.v.)
# Type: in vivo
# SETUP_CONDITIONS: male, CD-1, mouse, iv; brain, i.v. 1 mg/kg

These recorded examples may help you get a feel for the data.
Item: CCn1c(=O)c2c(nc(/C=C/c3ccc(OC(F)F)c(OC(F)F)c3)n2C)n(CC)c1=O [Formula I] | Tmax: 5 min

Item: CCn1c(=S)c2c(nc(/C=C/c3ccc(OC)c(OC)c3)n2C)n(CC)c1=O [Formula III] | Tmax: 5 min

Now take the following molecule into account.
Item: CCn1c(=O)c2c(nc(/C=C/c3ccc(OC)c(OC)c3)n2C)n(CC)c1=O [Istradefylline, reference compound] | Tmax: 5 min

---

The following compounds are shown together with reported Kp at 4 h values.
# MEASUREMENT_NOTES: Brain pharmacokinetics and brain/plasma ratio in male CD-1 mice (1 mg/kg i.v.)
# Format: in vivo
# SETUP_CONDITIONS: male, CD-1, mouse, brain/plasma, iv, 1 mg/kg, 1 mg/kg bolus i.v., 4 h; read-out: Brain/plasma concentration ratio, Mean
Write the number on its own, no unit after it.

Item: `CCn1c(=O)c2c(nc(/C=C/c3ccc(OC(F)F)c(OC(F)F)c3)n2C)n(CC)c1=O` | Kp at 4 h: 0.776

***
Item: CCn1c(=O)c2c(nc(/C=C/c3ccc(OC)c(OC)c3)n2C)n(CC)c1=O [Istradefylline, reference compound] | Kp at 4 h: 1

---

# MEASUREMENT_NOTES: Brain pharmacokinetics and brain/plasma ratio in male CD-1 mice (1 mg/kg i.v.)
# Format: in vivo
# SETUP_CONDITIONS: male, CD-1, mouse, brain/plasma, iv, 1 mg/kg, i.v. 1 mg/kg; read-out: Brain/plasma AUC0-inf ratio
MEASURED_PROPERTY: Kp
Write the number on its own, no unit after it.

Item: CCn1c(=O)c2c(nc(/C=C/c3ccc(OC)c(OC)c3)n2C)n(CC)c1=O [Istradefylline, reference compound] | Kp: 0.701

---

# MEASUREMENT_NOTES: Plasma pharmacokinetics in male CD-1 mice (1 mg/kg i.v. or 3 mg/kg p.o.)
# SETUP_CONDITIONS: CD-1, mouse, in vivo, iv, 1 mg/kg
MEASURED_PROPERTY: half-life (h)
Lab book: enter the figure in h, no units written.

These recorded examples may help you get a feel for the data.
Item: `CCn1c(=S)c2c(nc(/C=C/c3ccc(OC)c(OC)c3)n2C)n(CC)c1=O` | half-life: 3.39

Item: CCn1c(=O)c2c(nc(/C=C/c3ccc(OC)c(OC)c3)n2C)n(CC)c1=O [Istradefylline, reference compound] | half-life: 1.35

Now take the following compound into account.
Item: `CCn1c(=O)c2c(nc(/C=C/c3ccc(OC(F)F)c(OC(F)F)c3)n2C)n(CC)c1=O` | half-life: 6

Reference source for all entries: patent US12570656B2
